These measurements were taken from patent US20240400654A1.

target: HRgpA-6H (Porphyromonas gingivalis) (UniProt P28784); test: ELISA, coated HRgpA-6H
ASSAY_READOUT: Ratio OD(Variant)/OD(WT)
I'd appreciate a reply containing only the number, no unit.

Worked examples follow.
BINDER | Ratio OD(Variant)/OD(WT)
KB001 mouse Fab VL T100F (Fab, V domains shown) VH: EVQLKQSGPGLVAPSQSLSITCTVSGFSLSIYSVHWVRQPPGKGLEWLGMIWGGGSSDYNSALKSRLSISKDNSKSQVFLKMNSLQTDDTAMYYCARNGNFYAMDYWGQGTSVTVSS VL: QIVLTQSPAIMSASLGERVTMTCTASSSVSSSFLHWYQQKPGSSPQLWIYSTSNLASGVPARFSGSGSGTSYSLTISSMEAEDAATYYCHQYHHSPYIYFFGGGTKLEIK | 1.05
KB001 mouse Fab VH S30W (Fab, V domains shown) VH: EVQLKQSGPGLVAPSQSLSITCTVSGFSLWIYSVHWVRQPPGKGLEWLGMIWGGGSSDYNSALKSRLSISKDNSKSQVFLKMNSLQTDDTAMYYCARNGNFYAMDYWGQGTSVTVSS VL: QIVLTQSPAIMSASLGERVTMTCTASSSVSSSFLHWYQQKPGSSPQLWIYSTSNLASGVPARFSGSGSGTSYSLTISSMEAEDAATYYCHQYHHSPYIYTFGGGTKLEIK | 0.93
KB001 mouse Fab VH Y59T (Fab, V domains shown) VH: EVQLKQSGPGLVAPSQSLSITCTVSGFSLSIYSVHWVRQPPGKGLEWLGMIWGGGSSDTNSALKSRLSISKDNSKSQVFLKMNSLQTDDTAMYYCARNGNFYAMDYWGQGTSVTVSS VL: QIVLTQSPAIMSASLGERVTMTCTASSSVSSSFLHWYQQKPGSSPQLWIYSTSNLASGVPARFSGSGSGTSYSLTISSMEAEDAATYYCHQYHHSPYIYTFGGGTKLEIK | 0.941
KB001 mouse Fab VL S31Y (Fab, V domains shown) VH: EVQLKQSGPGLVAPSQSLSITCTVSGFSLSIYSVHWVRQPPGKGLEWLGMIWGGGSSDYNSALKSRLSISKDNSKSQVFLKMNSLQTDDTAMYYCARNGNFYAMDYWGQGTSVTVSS VL: QIVLTQSPAIMSASLGERVTMTCTASSSVSYSFLHWYQQKPGSSPQLWIYSTSNLASGVPARFSGSGSGTSYSLTISSMEAEDAATYYCHQYHHSPYIYTFGGGTKLEIK | 1

Now look at this one.
query: Quick one: Ratio OD(Variant)/OD(WT) for KB001 mouse Fab VL S27W (Fab, V domains shown) VH: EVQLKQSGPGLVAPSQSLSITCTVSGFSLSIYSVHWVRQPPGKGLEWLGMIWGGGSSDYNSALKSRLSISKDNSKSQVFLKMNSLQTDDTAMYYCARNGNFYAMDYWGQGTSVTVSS VL: QIVLTQSPAIMSASLGERVTMTCTASWSVSSSFLHWYQQKPGSSPQLWIYSTSNLASGVPARFSGSGSGTSYSLTISSMEAEDAATYYCHQYHHSPYIYTFGGGTKLEIK ?
result: 0.801
